# system name: CECR2 (Homo sapiens)
# Sequence (Q9BXF3 434-538 limits assumed): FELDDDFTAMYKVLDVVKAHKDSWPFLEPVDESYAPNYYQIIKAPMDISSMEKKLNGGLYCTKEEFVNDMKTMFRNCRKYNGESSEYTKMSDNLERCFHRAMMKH
pIC50: −log10 of the molar value.
readout: pIC50

Give reported pIC50 for "C[C@H]1CCCN1Cc1nc2cc(NC(=O)c3ccc4c(cnn4C)c3)ccc2[nH]1" (CECR2 (Homo sapiens))
< 5.00

----------
# system name: MLLT3 (Homo sapiens)
# Construct: made in house; host or cells: E. coli Rosetta
# Sequence (P42568 1-138 limits assumed): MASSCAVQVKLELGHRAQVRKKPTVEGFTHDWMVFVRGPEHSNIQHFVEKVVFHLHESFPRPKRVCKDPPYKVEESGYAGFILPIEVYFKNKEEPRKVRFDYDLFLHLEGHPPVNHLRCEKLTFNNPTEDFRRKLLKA
# assay info: AlphaScreen assay, MLLT3
# Type: binding
# experimental conditions: Figure 1
readout: IC50 (µM)
Write it as a number; the unit µM goes unstated.

Please report the measured IC50 for "COC(=O)c1ccc(C(=O)Nc2ccc3[nH]c(CN4CCCCC4)nc3c2)cc1"
1

----------
pIC50: −log10 of the molar value.
readout: pIC50

State the measured pIC50 (UniProt Q12830) of C[C@H]1CCCN1Cc1nc2cc(NC(=O)c3ccc4c(cnn4C)c3)ccc2[nH]1 [Compound 92]
< 5.00
